Measured GI50 values are reported for all entries that follow.
# Test system: RPMI-8226
# PROTOCOL: NCI tumour cell line growth inhibition, 48 h
Calls of active or inactive are those of the source. Rule as the data show it: active = GI50 up to about 1.1 µM and inactive = higher.
QUANTITY NAME: GI50

                                   compound  quantity_name          assay_result
0  CCc1ccccc1NC(=O)C1=C(C)NC(C)=C(C(=O)Nc2ccccc2CC)C1c1ccccc1Cl           GI50   > 100 µM (inactive)
1  Cc1cc(C)nc(NS(=O)(=O)c2ccc(Nc3c4ccccc4nc4c(C(=O)N5CCN(CCO)CC5)ccc(Cl)c34)cc2)n1           GI50    91.4 µM (inactive)
2  O=C1CNc2cc(N3CCN(c4cccc(C(F)(F)F)c4)CC3)ccc2N1           GI50    31.7 µM (inactive)
3  CCc1n[nH]c(=O)n1/N=C(\C)c1ccc([N+](=O)[O-])cc1           GI50   > 100 µM (inactive)
4  CCOC(=O)C(Sc1ccccc1)c1c(OC)cc(=O)oc1/C=[N+](/[O-])c1ccc(N(C)C)cc1 (centres undefined)           GI50    19.6 µM (inactive)
5  O=C([O-])Cc1ccccc1.[Na+] [SODIUM PHENYLACETATE]           GI50     413 µM (inactive)
6      CC(C)=NNc1cnnc2ccc([N+](=O)[O-])cc12           GI50    31.6 µM (inactive)
7  O=C1C2C3C4C1C1C2[C@H](OCc2ccccc2)C3C1[C@H]4OCc1ccccc1 (some centres undefined)           GI50    36.6 µM (inactive)
8  COc1ccc(C23c4ccc(OC)cc4CC2(c2ccc([N+](=O)[O-])cc2)Cc2cc(OC)ccc23)cc1 (centres undefined)           GI50  > 27.4 µM (inactive)

---

# Tested on: CAKI-1
# PROTOCOL: NCI tumour cell line growth inhibition, 48 h
The source made the active and inactive calls. Rule as the data show it: active = GI50 up to about 1.1 µM and inactive = higher.
Labels: YES for active, NO for inactive

MOLECULE	CATEGORY
OCCOc1ccc(-c2cc(-c3ccccn3)nc(-c3ccccn3)c2)cc1	YES
CC(SC(=S)N1CCOCC1)C(=O)Nc1nnc(-c2ccccc2)o1 (centres undefined)	NO
CCOc1ccccc1NC(=O)CC1Sc2ccccc2NC1=O (centres undefined)	NO
Cc1ccc(C)c(N2C/C(=N\NC(=O)CC#N)C(c3nc4ccccc4s3)C(=O)C2=O)c1 (centres undefined)	NO
CCOC(=O)/C(C(=O)Nc1cccc(C(F)(F)F)c1)=C(/N)N1CCOCC1	NO
COc1ccc(N2C(=O)C(N3C(=O)C=CC3=O)C2C=O)cc1 (centres undefined)	NO
C=CCn1c(-c2ccc([N+](=O)[O-])cc2)cs/c1=N\C(P(=O)(O)O)P(=O)(O)O	NO
Cc1cc2c(O)c(c1)CN(CC(=O)O)Cc1cc(C)cc(c1O)CN(CC(=O)O)Cc1cc(C)cc(c1O)CN(CC(=O)O)C2	NO
COc1cc(C[S+]2CCCC2)c(SC)cc1C[S+]1CCCC1	NO
CCC/C(=N\NC(=S)N1CC2CCC(CC2)C1)c1ccccn1	NO
O=C(C=P(c1ccccc1)(c1ccccc1)c1ccccc1)c1cccc(-c2cccc([N+](=O)[O-])c2)c1	NO
Cc1c(/C=N/NC(=S)Nc2ccccc2)c(=O)n(-c2ccccc2)n1C	NO
NNc1nncn1N	NO
COC(CN(C)C(=S)Nc1cccc2ccccc12)OC	NO
O=C(/C=C/c1ccccc1F)c1ccc([N+](=O)[O-])cc1	NO
CC(=O)O[C@H]1CC[C@@]2(C)C(=CC[C@@H]3[C@@H]2CC[C@]2(C)C(=N/O)/C(=C/c4ccc([N+](=O)[O-])cc4)C[C@@H]32)C1	NO
C=CCOC(=O)CCCCCCCCCCCCCCCOC(=O)C1=C(CCC[C@@H](C)O[Si](C)(C)C(C)(C)C)NC(=O)N2[C@H](CC3(CC/C=C\[C@H](CC)O[Si](C(C)C)(C(C)C)C(C)C)OCCO3)CC[C@H]12	NO
C[C@H](CCC(=O)O)[C@H]1CC[C@H]2[C@@H]3[C@@H](O)C[C@@H]4C[C@H](O)CC[C@]4(C)[C@H]3CC[C@]12C	NO
O=Cc1cc([N+](=O)[O-])no1	NO

---

# Tested on: Hs-578T
# PROTOCOL: NCI tumour cell line growth inhibition, 48 h
Active and inactive are the calls of the source. Cut-off read from the data, not from the text of the source: active = GI50 up to about 1.1 µM and inactive = higher.
QUANTITY NAME: GI50

COMPOUND	EXPERIMENTAL SYSTEM	ASSAY RESULT
CC(=O)n1nc(-c2nc3ccccc3nc2Cl)cc1Cl	Hs-578T	34.5 µM (inactive)
C(=N\c1cnc2ccccc2c1)/c1ccc2ccccc2n1	Hs-578T	> 100 µM (inactive)
COC(=O)c1ccc(C)cc1C1CN=NC12Cc1cc(C)c(C)cc1C2=O (stereo not drawn)	Hs-578T	46.5 µM (inactive)
COc1ccc(-c2cc(-c3ccccc3)nc(N)n2)c(O)c1	Hs-578T	> 100 µM (inactive)
COC12C=CC(CC1)C1C(=O)c3c(C)c(C)n(C)c3C(=O)C12 (stereo not drawn)	Hs-578T	70.3 µM (inactive)
C=CCN1C(=O)CC2[C@@H]3CCc4cc(O)ccc4C3CC[C@]2(C)C1=O (stereo partly drawn)	Hs-578T	> 10 µM (inactive)
O=S(=O)(O)CCCc1cccc2ccccc12	Hs-578T	> 100 µM (inactive)
O=C([O-])Cc1ccccc1.[Na+] [SODIUM PHENYLACETATE]	Hs-578T	385 µM (inactive)
Clc1ccc(/N=c2\oc3ccccc3cc2-c2nc3ccccc3[nH]2)c(Cl)c1	Hs-578T	34.2 µM (inactive)
O=c1oc2ccc(Cl)cc2cc1C1=CSC2=NCCN12	Hs-578T	31.7 µM (inactive)
COC1CCON1C(=O)c1ccccc1 (stereo not drawn)	Hs-578T	> 10 µM (inactive)
CNc1nc2c(C)ccc3nc(N(C)C)nc-3c2n1C	Hs-578T	> 10 µM (inactive)
C=C(CCOC)CCC1CCCCC(=C)[C@H]1OC(C)=O (stereo partly drawn)	Hs-578T	> 100 µM (inactive)
CCOc1cc(C=O)c2c(ccc3ccc(OC)c(OC)c32)c1OC	Hs-578T	37.8 µM (inactive)
CCC/C(Cl)=N\OC(=O)Nc1ccc(OC(F)(F)F)cc1	Hs-578T	28.1 µM (inactive)
CCCc1c(O)nc(Nc2nc3ccccc3[nH]2)[nH]c1=O	Hs-578T	> 100 µM (inactive)
COc1ccc(OC2OC(CO)C(OCc3ccccc3)C(OCc3ccccc3)C2OCc2ccccc2)cc1 (stereo not drawn)	Hs-578T	56.9 µM (inactive)
CC(=O)OCC1OC(OC2CC3C(C)(C)C(=O)CC[C@]3(C)C3CC[C@]45C[C@]4(CCC5[C@@H](C)CC(O)C(O)C(C)(C)O)[C@]23C)C(O)C(O)C1O (stereo partly drawn)	Hs-578T	10.4 µM (inactive)
N#CC12CC(C=O)=C(N)C1(C#N)CC(C=O)=C2N (stereo not drawn)	Hs-578T	34 µM (inactive)
CNC1C(O)C(OC2C(N)CC(N)C(OC3OC(C(C)O)C(O)C(O)C3N)C2O)OCC1(C)O (stereo not drawn)	Hs-578T	> 100 µM (inactive)
O=C1NN(Cc2ccccc2)C(=O)N2CCC[C@@H]12	Hs-578T	> 100 µM (inactive)
C(=C\c1nccs1)/c1cccc(/C=C/c2nccs2)n1	Hs-578T	> 50 µM (inactive)
Cc1cccc2c1C(=O)C(C1OC(=O)c3ccccc31)C2 (stereo not drawn)	Hs-578T	43.9 µM (inactive)

---

# System: COLO 205
# PROTOCOL: NCI tumour cell line growth inhibition, 48 h
Calls of active or inactive are those of the source. Rule as the data show it: active = GI50 up to about 1.1 µM and inactive = higher.
Measured GI50 values are reported for all entries that follow.
QUANTITY NAME: GI50

>>> df
                                   compound  quantity_name         assay_result
0  COc1nc(=O)n(C2CC(F)C(CO)O2)cc1C (stereo unspecified)           GI50  > 100 µM (inactive)
1  Nc1c(C(=O)c2ccccc2)[nH]c(NCc2ccccc2)c1C(=S)Nc1ccccc1           GI50  > 100 µM (inactive)
2        O=c1oc2ccc(Cl)cc2cc1C1=CSC2=NCCN12           GI50   20.9 µM (inactive)
3  Cc1nc(N)c(N2CCN(S(=O)(=O)N(Cc3ccccc3)Cc3ccccc3)CC2)c(O)n1           GI50   23.3 µM (inactive)
4            O=C(O)COc1c(Cl)cc(Cl)c2cccnc12           GI50  > 100 µM (inactive)
5  N#Cc1c(-c2ccccc2)cc(-c2ccc(Cl)cc2)[nH]c1=S           GI50   25.4 µM (inactive)
